Data provenance: patent US20030091584A1

This section presents binders with their documented koff values.
Target Of Assay: T1, RSV F glycoprotein (NUF4) (respiratory syncytial virus)
T1 chain 1: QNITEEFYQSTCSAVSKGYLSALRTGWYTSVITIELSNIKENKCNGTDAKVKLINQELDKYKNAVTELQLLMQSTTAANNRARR
T1 chain 2: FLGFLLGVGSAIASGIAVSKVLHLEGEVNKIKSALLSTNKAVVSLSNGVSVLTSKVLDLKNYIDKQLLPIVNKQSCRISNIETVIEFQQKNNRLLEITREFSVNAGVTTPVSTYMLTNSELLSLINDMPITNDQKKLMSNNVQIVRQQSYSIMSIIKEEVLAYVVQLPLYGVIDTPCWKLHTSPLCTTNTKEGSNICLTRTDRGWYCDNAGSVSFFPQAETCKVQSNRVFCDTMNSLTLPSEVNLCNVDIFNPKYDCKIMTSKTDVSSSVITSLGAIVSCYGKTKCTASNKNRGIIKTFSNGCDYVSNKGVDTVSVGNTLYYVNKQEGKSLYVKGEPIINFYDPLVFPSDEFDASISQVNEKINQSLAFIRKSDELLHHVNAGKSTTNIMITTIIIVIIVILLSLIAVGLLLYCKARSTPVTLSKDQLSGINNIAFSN
Assay Remarks: BIAcore, mAb vs NUF4 (1:1)
Reply numerically in s⁻¹, unit not repeated.

For orientation, consider the following solved cases.
>>> observed_measurement("A17d4 (monoclonal antibody) (antibody, V domains shown, mAb with framework and constant regions of SYNAGIS) VH: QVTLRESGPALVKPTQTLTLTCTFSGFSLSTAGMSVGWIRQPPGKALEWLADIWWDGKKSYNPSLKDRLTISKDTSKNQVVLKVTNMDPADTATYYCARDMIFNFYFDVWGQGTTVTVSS VL: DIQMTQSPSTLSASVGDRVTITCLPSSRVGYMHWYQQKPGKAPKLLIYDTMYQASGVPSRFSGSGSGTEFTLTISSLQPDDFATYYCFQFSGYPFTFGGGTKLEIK")
0.000362
>>> observed_measurement("P12f4 (monoclonal antibody) (antibody, V domains shown, mAb with framework and constant regions of SYNAGIS) VH: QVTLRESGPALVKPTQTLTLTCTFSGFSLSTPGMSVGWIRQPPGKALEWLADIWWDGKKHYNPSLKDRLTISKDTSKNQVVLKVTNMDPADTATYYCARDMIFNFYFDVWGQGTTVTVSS VL: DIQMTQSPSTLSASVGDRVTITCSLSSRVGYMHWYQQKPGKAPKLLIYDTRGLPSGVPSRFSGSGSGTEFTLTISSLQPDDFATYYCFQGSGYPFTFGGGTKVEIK")
0.000229

Next binder, please.
Query: # query: koff of entry A1e9 (monoclonal antibody) (antibody, V domains shown, mAb with framework and constant regions of SYNAGIS; also called Ale9) VH: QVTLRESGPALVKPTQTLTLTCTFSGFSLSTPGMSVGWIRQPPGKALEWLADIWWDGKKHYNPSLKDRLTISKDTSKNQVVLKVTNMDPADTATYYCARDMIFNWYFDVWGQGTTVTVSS VL: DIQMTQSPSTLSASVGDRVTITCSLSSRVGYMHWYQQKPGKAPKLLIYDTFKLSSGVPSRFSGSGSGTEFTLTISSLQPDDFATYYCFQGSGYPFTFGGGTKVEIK
Response: 0.000584
